Test: Stat Signaling Pathway (AID 446);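 note: ME-180 cervical cancer cells given 40 pM IL-6 alongside compound; SIE-controlled beta-lactamase reporter measured as 460/530 nm FRET emission ratio; % is set by controls: 0 for no effect and ±100 for the full control effect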
Details: ME-180 (cervical carcinoma) SIE beta-lactamase reporter, IL-6 stimulated, 5 h; at 7.69 µM (top of the series) unless noted
Results filed as inconclusive are left out.
Test Readout: activity, negative = inhibition (%)

>>> readout_number("CN1CC[C@@]2(CCCN(S(=O)(=O)c3ccccc3)C2)C1")
3.36
>>> readout_number("CN(C)c1nc(-c2cccnc2)nc2ccccc12")
-4.72
>>> readout_number("COc1cccc(-c2cc(NCCc3c[nH]c4ccc(OC)cc34)ncn2)c1")
-5.09
>>> readout_number("Cc1cccc(CNc2ncncc2-c2ccc(C(=O)N(C)C)cc2)c1")
1.97

Origin of the recorded values: PubChem BioAssay (NCATS)
